Molecular target: TRβ (Homo sapiens, UniProt P10828)
Construct: expressed in transfected cells; host or cells: HEK293
Sequence (P10828 217-461 limits assumed): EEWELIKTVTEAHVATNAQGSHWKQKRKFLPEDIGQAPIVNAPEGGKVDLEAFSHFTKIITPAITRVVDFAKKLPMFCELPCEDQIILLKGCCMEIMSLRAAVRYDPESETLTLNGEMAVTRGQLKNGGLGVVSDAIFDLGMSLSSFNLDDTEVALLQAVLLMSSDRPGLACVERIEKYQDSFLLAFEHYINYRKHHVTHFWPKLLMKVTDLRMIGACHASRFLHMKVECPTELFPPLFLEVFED
Test: TR reporter-gene assay (Gal4 DBD hybrid, luciferase), TRβ
Format: cell-based
Conditions: class symbols
observation.type: T3-SI (selectivity index, EC50 (TRα)/EC50 (TRβ))

Consider the worked cases shown below.
compound=Cc1cc(CNCC(=O)O)cc(Cl)c1Cc1ccc(O)c(C(C)C)c1 reported="+ (T3-SI ≤ 3×)"
compound=Cc1cc(NCC(=O)O)cc(Cl)c1Cc1ccc(O)c(C(C)C)c1 reported="++ (3× < T3-SI ≤ 30×)"
compound="CC(C)c1cc(Cc2c(Cl)cc(C[S+]([O-])CC(=O)O)cc2Cl)ccc1O (centres unmarked) [Compound 96]" reported="+ (T3-SI ≤ 3×)"
compound=CC(C)c1c(O)ccc(Cc2c(Cl)cc(OCCCCC(=O)O)cc2Cl)c1F reported="+ (T3-SI ≤ 3×)"
compound=Cc1cc(SCC(=O)O)c(F)c(Cl)c1Cc1ccc(O)c(C(C)C)c1 reported="++ (3× < T3-SI ≤ 30×)"
compound=CC(C)c1cc(Cc2c(Cl)cc(CC(=O)O)cc2Cl)ccc1O reported="++ (3× < T3-SI ≤ 30×)"

// query T3-SI (selectivity index, EC50 (TRα)/EC50 (TRβ)) value for entry CC(C)c1cc(Cc2c(Cl)cc(C[S+]([O-])CC(=O)O)cc2Cl)ccc1O (centres unmarked) [Compound 210]
++ (3× < T3-SI ≤ 30×)

Try this compound too: Cc1cc(C[S+]([O-])CC(=O)O)cc(Cl)c1Cc1ccc(O)c(C(C)C)c1 (centres unmarked)
++ (3× < T3-SI ≤ 30×)

Follow-up entry: CC(C)c1cc(Cc2c(Cl)cc(/C=C/CC(=O)O)cc2Cl)ccc1O
++ (3× < T3-SI ≤ 30×)

Lookup Cc1c(F)c(NCC(=O)O)cc(Cl)c1Cc1ccc(O)c(C(C)C)c1F
++ (3× < T3-SI ≤ 30×)

Another compound to look at: CC(C)c1cc(Cc2c(Cl)cc(CCC(=O)O)c(F)c2Cl)ccc1O
++ (3× < T3-SI ≤ 30×)

Another compound to check: CC(Oc1cc(Cl)c(Cc2ccc(O)c(C(C)C)c2F)c(Cl)c1)C(=O)O (centres unmarked)
++ (3× < T3-SI ≤ 30×)

Ref: patent US12528761B2
